EXPERIMENT_SUMMARY: Intrinsic clearance in Sprague-Dawley rat liver microsomes at […] after 2 mins in presence of NADPH by HPLC analysis
Format: ADME, Microsome
READOUT_LABEL: intrinsic clearance (µL/min/mg)

// known answers, use as guide
NC(=O)c1cnc(SC2CCCNC2)c2cc(-c3ccccc3)sc12 (racemic): 11
NC(=O)c1cnc(N[C@H]2CCCNC2)c2cc(-c3ccsc3)sc12: 72

(a) NC(=O)c1cnc(N[C@H]2CCCNC2)c2cc(-c3cccs3)sc12
(b) NC(=O)c1ccc(N[C@H]2CCCNC2)c2cc(-c3ccccc3)[nH]c12
Exercise: Param pair: a , b . Output: the one whose intrinsic clearance is numerically greater. Select an item and report its label.
Key: b
(b: 120 µL/min/mg, a: 36 µL/min/mg)

FYI, the data here is from ChEMBL document CHEMBL4033783.
